- SYSTEM NAME: α1β2γ2 GABAA receptor (Homo sapiens (Human), UniProt P14867+P47870)
- ASSAY EXPLANATION: Patch clamp electrophysiology of recombinant α1β2γ2 GABAA receptors in LTK cells
- Type: cell-based
- REPORTED CONDITIONS: LTK, 10 μM compound, Qpatch, Ltk cells, GABA EC20 2 μM; read-out: α1β2γ2 GABA Qpatch in Ltk (Efficacy at 10 μm)
activity at 10 µM values, listed per item

{"columns": ["SMILES INPUT", "activity at 10 µM"],
 "data": [
  ["CCOC[C@@]1(O)CC[C@H]2[C@@H](CC[C@@H]3[C@@H]2CC[C@]2(C)[C@@H](C(=O)Cn4nc5ccccc5n4)CC[C@@H]32)C1", "10 to 100%"],
  ["COC[C@@]1(O)CC[C@H]2[C@@H](CC[C@@H]3[C@@H]2CC[C@]2(C)[C@@H](C(=O)Cn4nc5ccccc5n4)CC[C@@H]32)C1", "10 to 100%"],
  ["C[C@@]1(O)CC[C@H]2[C@H](CC[C@@H]3[C@@H]2CC[C@]2(C)[C@@H](C(=O)Cn4nnc5cccc(Cl)c54)CC[C@@H]32)C1", "> 500%"],
  ["CCOC[C@@]1(O)CC[C@H]2[C@@H](CC[C@@H]3[C@@H]2CC[C@]2(C)[C@@H](C(=O)Cn4nnc5ccccc54)CC[C@@H]32)C1", "100 to 500%"],
  ["C[C@@]1(O)CC[C@H]2[C@H](CC[C@@H]3[C@@H]2CC[C@]2(C)[C@@H](C(=O)Cn4ncc5ncc(Cl)cc54)CC[C@@H]32)C1", "> 500%"],
  ["Cc1ccc2nn(CC(=O)[C@H]3CC[C@H]4[C@@H]5CC[C@@H]6C[C@](C)(O)CC[C@@H]6[C@H]5CC[C@]34C)nc2c1", "100 to 500%"],
  ["COc1cccc2nnn(CC(=O)[C@H]3CC[C@H]4[C@@H]5CC[C@@H]6C[C@](C)(O)CC[C@@H]6[C@H]5CC[C@]34C)c12", "100 to 500%"],
  ["C[C@@]1(O)CC[C@H]2[C@H](CC[C@@H]3[C@@H]2CC[C@]2(C)[C@@H](C(=O)Cn4nc5ccc(F)cc5n4)CC[C@@H]32)C1", "100 to 500%"]
]}
